- target: CDK9/Cyclin T1 (Homo sapiens)
- Sequence (P50750 whole entry): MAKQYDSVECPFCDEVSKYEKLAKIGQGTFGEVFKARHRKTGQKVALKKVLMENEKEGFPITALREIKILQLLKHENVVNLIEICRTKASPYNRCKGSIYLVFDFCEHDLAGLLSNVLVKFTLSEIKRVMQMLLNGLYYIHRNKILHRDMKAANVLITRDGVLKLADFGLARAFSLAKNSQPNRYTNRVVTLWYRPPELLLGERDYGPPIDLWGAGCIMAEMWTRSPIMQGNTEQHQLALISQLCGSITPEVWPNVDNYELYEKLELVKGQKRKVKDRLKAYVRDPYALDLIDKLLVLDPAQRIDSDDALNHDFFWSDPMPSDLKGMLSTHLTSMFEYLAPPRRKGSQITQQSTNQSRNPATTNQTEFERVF
- Sequence (O60563 whole entry partner): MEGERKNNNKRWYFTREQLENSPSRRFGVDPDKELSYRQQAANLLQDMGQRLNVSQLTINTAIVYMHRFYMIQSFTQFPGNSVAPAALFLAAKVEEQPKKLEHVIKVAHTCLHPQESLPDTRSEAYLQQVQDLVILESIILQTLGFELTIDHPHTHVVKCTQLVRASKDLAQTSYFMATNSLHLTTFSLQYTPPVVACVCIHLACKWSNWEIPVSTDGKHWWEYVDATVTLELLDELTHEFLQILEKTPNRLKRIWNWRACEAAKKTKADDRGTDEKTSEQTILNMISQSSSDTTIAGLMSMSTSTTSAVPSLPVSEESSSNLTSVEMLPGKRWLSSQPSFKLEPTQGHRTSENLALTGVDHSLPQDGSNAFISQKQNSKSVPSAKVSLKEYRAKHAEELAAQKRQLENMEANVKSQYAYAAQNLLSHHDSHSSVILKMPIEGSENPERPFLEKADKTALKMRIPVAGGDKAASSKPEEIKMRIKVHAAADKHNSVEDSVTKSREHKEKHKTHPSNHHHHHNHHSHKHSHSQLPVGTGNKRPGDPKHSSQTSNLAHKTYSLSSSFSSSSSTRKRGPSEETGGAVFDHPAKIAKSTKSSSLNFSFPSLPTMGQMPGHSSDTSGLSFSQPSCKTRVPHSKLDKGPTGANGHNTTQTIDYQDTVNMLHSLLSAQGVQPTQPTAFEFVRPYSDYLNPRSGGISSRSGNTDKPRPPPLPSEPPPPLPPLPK
- measurement.notes: CDK9 Enzymatic Activity Assay (Lance Kinase Activity Assay, FRET)
- Format: biochemical
- condition.notes: Table 5B, class symbols per IC50 [nM] ranges of b581; read-out: CDK9: Selectivity of CDK7 inhibition over CDK9 inhibition
experimental.endpoint: IC50

Consider the following illustrative entries.
CC(C)c1cnn2c(NCc3cccc4ccncc34)nc(O[C@@H]3CCCNC3)nc12 = < 50 nM
CC(C)c1cnn2c(NCc3ccccc3S(=O)(=O)N(C)C)nc(N3CCC4(CCCN4)CC3)nc12 = > 2500 nM
CC(C)c1cnn2c(NCc3ccccc3-n3cccn3)nc(N3CCC34CCCNC4)nc12 (centres unmarked) = > 2500 nM
Cc1nccn1-c1ccccc1CNc1nc(OC2CCN(C)CC2)nc2c(C(C)C)cnn12 = > 2500 nM
Cc1nccn1-c1ccccc1CNc1nc([S+]([O-])C2CCNCC2)nc2c(C(C)C)cnn12 (centres unmarked) = > 2500 nM
CC(C)c1cnn2c(NCc3ccccc3-n3cccn3)nc(OC3CNCCOC3)nc12 (centres unmarked) = > 2500 nM

IC50 lookup needed for CC(C)c1cnn2c(NCc3ccccc3-n3cc(Cl)cn3)nc(O[C@@H]3CCCNC3)nc12 , thanks. 50 to 500 nM

IC50 lookup needed for CC(C)c1cnn2c(N[C@@H](C)c3ccccc3Cl)nc(O[C@@H]3CCCNC3)nc12 , thanks. > 2500 nM
